# Test system: NCI/ADR-RES
# method_description: 50% inhibition of cell growth against NCI/ADRcell line
# Type: functional
# experimental_setup: Homo sapiens
Form field: GI50 (one value per entry).
value_kind: GI50

# test_smiles, measured_value
rows = [
    ("Cc1cc(C(=O)NCCCN(C)CCCNC(=O)c2cc(C)cc3nc4ccccc4nc23)c2nc3ccccc3nc2c1", "5730 nM"),
    ("CN(CCCNC(=O)c1cccc2nc3cccc(Oc4ccccc4)c3nc12)CCCNC(=O)c1cccc2nc3cccc(Oc4ccccc4)c3nc12", "1630 nM"),
    ("CN(CCCNC(=O)c1cc(Cl)cc2nc3ccccc3nc12)CCCNC(=O)c1cc(Cl)cc2nc3ccccc3nc12", "125 nM"),
    ("CN(CCCNC(=O)c1cccc2nc3cc(Cl)ccc3nc12)CCCNC(=O)c1cccc2nc3cc(Cl)ccc3nc12", "1140 nM"),
    ("COc1ccc2nc3cccc(C(=O)NCCCN(C)CCCNC(=O)c4cccc5nc6ccc(OC)cc6nc45)c3nc2c1", "1210 nM"),
    ("Cc1ccc(Cl)c2nc3cccc(C(=O)NCCCN(C)CCCNC(=O)c4cccc5nc6c(Cl)ccc(C)c6nc45)c3nc12", "50 nM"),
    ("Cc1ccc2nc3cccc(C(=O)NCCCN(C)CCCNC(=O)c4cccc5nc6ccc(C)cc6nc45)c3nc2c1", "1570 nM"),
    ("CN(CCCNC(=O)c1cccc2nc3cccc(F)c3nc12)CCCNC(=O)c1cccc2nc3cccc(F)c3nc12", "7450 nM"),
    ("Cc1ccc2nc3c(C(=O)NCCCN(C)CCCNC(=O)c4cccc5nc6cc(C)ccc6nc45)cccc3nc2c1", "2660 nM"),
    ("CN(CCCNC(=O)c1cccc2nc3cccc(N(C)C)c3nc12)CCCNC(=O)c1cccc2nc3cccc(N(C)C)c3nc12", "11000 nM"),
    ("CN(CCCNC(=O)c1cccc2nc3cccc(Cl)c3nc12)CCCNC(=O)c1cccc2nc3cccc(Cl)c3nc12", "350 nM"),
    ("Cc1cccc2nc3c(C(=O)NCCCN(C)CCCNC(=O)c4cccc5nc6c(C)cccc6nc45)cccc3nc12", "920 nM"),
    ("COc1ccc2nc3c(C(=O)NCCCN(C)CCCNC(=O)c4cccc5nc6cc(OC)ccc6nc45)cccc3nc2c1", "20000 nM"),
    ("Cc1ccc(C)c2nc3c(C(=O)NCCCN(C)CCCNC(=O)c4cccc5nc6c(C)ccc(C)c6nc45)cccc3nc12", "35 nM"),
    ("CN(CCCNC(=O)c1c(Cl)ccc2nc3ccccc3nc12)CCCNC(=O)c1c(Cl)ccc2nc3ccccc3nc12", "> 100000 nM"),
]

* * *

# Test system: SK-OV-3
# method_description: 50% inhibition of cell growth against SKOV-3 cell line
# Type: functional
# experimental_setup: Homo sapiens
value_kind: GI50

# test_smiles, measured_value
rows = [
    ("CN(CCCNC(=O)c1cccc2nc3cccc(F)c3nc12)CCCNC(=O)c1cccc2nc3cccc(F)c3nc12", "14000 nM"),
    ("CN(CCCNC(=O)c1cccc2nc3cccc(Cl)c3nc12)CCCNC(=O)c1cccc2nc3cccc(Cl)c3nc12", "790 nM"),
    ("Cc1ccc2nc3cccc(C(=O)NCCCN(C)CCCNC(=O)c4cccc5nc6ccc(C)cc6nc45)c3nc2c1", "11000 nM"),
    ("COc1ccc2nc3c(C(=O)NCCCN(C)CCCNC(=O)c4cccc5nc6cc(OC)ccc6nc45)cccc3nc2c1", "9660 nM"),
    ("COc1ccc2nc3cccc(C(=O)NCCCN(C)CCCNC(=O)c4cccc5nc6ccc(OC)cc6nc45)c3nc2c1", "800 nM"),
    ("Cc1ccc(Cl)c2nc3cccc(C(=O)NCCCN(C)CCCNC(=O)c4cccc5nc6c(Cl)ccc(C)c6nc45)c3nc12", "2030 nM"),
    ("COc1cccc2nc3cccc(C(=O)NCCCN(C)CCCNC(=O)c4cccc5nc6cccc(OC)c6nc45)c3nc12", "1560 nM"),
    ("CN(CCCNC(=O)c1cccc2nc3cccc(Oc4ccccc4)c3nc12)CCCNC(=O)c1cccc2nc3cccc(Oc4ccccc4)c3nc12", "11000 nM"),
    ("CN(CCCNC(=O)c1cccc2nc3ccc(Cl)cc3nc12)CCCNC(=O)c1cccc2nc3ccc(Cl)cc3nc12", "1880 nM"),
    ("Cc1ccc(C)c2nc3c(C(=O)NCCCN(C)CCCNC(=O)c4cccc5nc6c(C)ccc(C)c6nc45)cccc3nc12", "74 nM"),
    ("CN(CCCNC(=O)c1cccc2nc3ccccc3nc12)CCCNC(=O)c1cccc2nc3ccccc3nc12", "850 nM"),
    ("Cc1cccc2nc3c(C(=O)NCCCN(C)CCCNC(=O)c4cccc5nc6c(C)cccc6nc45)cccc3nc12", "12000 nM"),
    ("CN(CCCNC(=O)c1c(Cl)ccc2nc3ccccc3nc12)CCCNC(=O)c1c(Cl)ccc2nc3ccccc3nc12", "88000 nM"),
    ("CN(CCCNC(=O)c1cc(Cl)cc2nc3ccccc3nc12)CCCNC(=O)c1cc(Cl)cc2nc3ccccc3nc12", "1460 nM"),
    ("Cc1cc(C(=O)NCCCN(C)CCCNC(=O)c2cc(C)cc3nc4ccccc4nc23)c2nc3ccccc3nc2c1", "12000 nM"),
    ("CN(CCCNC(=O)c1cccc2nc3cc(Cl)ccc3nc12)CCCNC(=O)c1cccc2nc3cc(Cl)ccc3nc12", "1960 nM"),
    ("Cc1cccc2nc3cccc(C(=O)NCCCN(C)CCCNC(=O)c4cccc5nc6cccc(C)c6nc45)c3nc12", "220 nM"),
    ("CN(CCCNC(=O)c1cccc2nc3cccc(N(C)C)c3nc12)CCCNC(=O)c1cccc2nc3cccc(N(C)C)c3nc12", "10000 nM"),
    ("Cc1ccc2nc3c(C(=O)NCCCN(C)CCCNC(=O)c4cccc5nc6cc(C)ccc6nc45)cccc3nc2c1", "5840 nM"),
]

* * *

# System: NCI/ADR-RES
# method_description: 50% inhibition of cell growth against NCI/ADRcell line
# Format: functional
# experimental_setup: Homo sapiens
Each item that follows carries a reported GI50.

# test_smiles, unit_tag, GI50
measured = [
    ("CN(CCCNC(=O)c1cccc2nc3ccccc3nc12)CCCNC(=O)c1cccc2nc3ccccc3nc12", "µM", 1.05),
    ("Cc1cccc2nc3cccc(C(=O)NCCCN(C)CCCNC(=O)c4cccc5nc6cccc(C)c6nc45)c3nc12", "µM", 0.019),
    ("COc1cccc2nc3cccc(C(=O)NCCCN(C)CCCNC(=O)c4cccc5nc6cccc(OC)c6nc45)c3nc12", "µM", 21),
    ("CN(CCCNC(=O)c1cccc2nc3ccc(Cl)cc3nc12)CCCNC(=O)c1cccc2nc3ccc(Cl)cc3nc12", "µM", 0.24),
]
